Biological target: human uPAR (uPAR-Fc) (Homo sapiens)
Construct: comprising amino acids Leu23-Arg303 according to UniProt entry Q03405.1; purchased R&D Systems 10378-UK-100
Test: Surface plasmon resonance (SPR) assay, single cycle kinetics
Assay type: binding
Details: pKD category for uPAR SPR activity assay; uPAR-Fc on Protein A-Chip, single cycle kinetics, 25°C; read-out: pKD CAT (converted)
Method: Surface plasmon resonance (SPR) is an optical technique used to measure molecular interactions in real time. SPR occur when plane-polarized light hits a metal film under total internal reflection conditions. […] In an SPR experiment, one molecule (i.e. uPAR) is immobilized on a sensor chip and binding to a second molecule (i.e. test compounds) is measured under flow. […] This response is measured in resonance units (RU). […]
Where a SMILES comes first, the peptide text is derived from it. Bridges are numbered along the chain shown (N, C = ends). [ ]: non-standard residue; d: D form. The star is where a group is joined. DOTA = O=C(O)CN1CCN(CC(=O)O)CCN(CC(=O)*)CCN(CC(=O)O)CC1; Hyp = O=C(O)[C@@H]1C[C@@H](O)CN1; Gly(cBu) = N[C@H](C(=O)O)C1CCC1; Pentanoyl(4-Me) = CC(C)CCC(=O)*; Cit = NC(=O)NCCC[C@H](N)C(=O)O; Nva = CCC[C@H](N)C(=O)O; Pentanoyl = CCCCC(=O)*
Below, each of the compounds is paired with its reported Kd value.

{"compound": "CCCCC(=O)N[C@H]1CSSC[C@@H](C(N)=O)NC(=O)[C@H](C2CCC2)NC(=O)[C@H]([C@@H](C)CC)NC(=O)[C@@H]2C[C@@H](O)CN2C(=O)[C@@H]2CCCN2C(=O)[C@H](Cc2ccccc2)NC(=O)[C@H](Cc2ccc(O)cc2)NC(=O)[C@H](CCC(N)=O)NC(=O)[C@H](CCCNC(=N)N)NC1=O [UPAR-411] (Pentanoyl-CRQYFP[Hyp]I[Gly(cBu)]C-NH2; disulfide 1-10)", "Kd": "< 1.58 nM"}
{"compound": "CCCCC(=O)N[C@H]1CSSC[C@@H](C(N)=O)NC(=O)[C@H](COC)NC(=O)[C@H]([C@@H](C)CC)NC(=O)[C@@H]2C[C@@H](O)CN2C(=O)[C@@H]2CCCN2C(=O)[C@H](Cc2ccccc2)NC(=O)[C@H](Cc2ccc(O)cc2)NC(=O)[C@H](CCCCNC(=O)CN2CCN(CC(=O)O)CCN(CC(=O)O)CCN(CC(=O)O)CC2)NC(=O)[C@H](CCCNC(N)=O)NC1=O [UPAR-380] (Pentanoyl-C[Cit]K(DOTA)YFP[Hyp]IS(Me)C-NH2; disulfide 1-10)", "Kd": "1.58 to 10 nM"}
{"compound": "CCCCC(=O)N[C@H]1CSSC[C@@H](C(N)=O)NC(=O)[C@H](CCC)NC(=O)[C@H]([C@@H](C)CC)NC(=O)[C@@H]2C[C@@H](O)CN2C(=O)[C@@H]2CCCN2C(=O)[C@H](Cc2ccccc2)NC(=O)[C@H](Cc2ccc(O)cc2)NC(=O)[C@H](CCC(N)=O)NC(=O)[C@H](Cc2ccc(O)cc2)NC1=O [UPAR-454] (Pentanoyl-CYQYFP[Hyp]I[Nva]C-NH2; disulfide 1-10)", "Kd": "< 1.58 nM"}
{"compound": "CC(C)CCC(=O)N[C@H]1CSSC[C@@H](C(N)=O)NC(=O)[C@H](CC(C)C)NC(=O)[C@H](C2CCC2)NC(=O)[C@@H](C)NC(=O)[C@@H]2CCCN2C(=O)[C@H](Cc2ccccc2)NC(=O)[C@H](Cc2ccc(O)cc2)NC(=O)[C@H](CCC(N)=O)NC(=O)[C@H](CCCNC(N)=O)NC1=O [UPAR-453] ({Pentanoyl(4-Me)}-C[Cit]QYFP[dA][Gly(cBu)]LC-NH2; disulfide 1-10)", "Kd": "1.58 to 10 nM"}
{"compound": "CCCCC(=O)N[C@H]1CSSC[C@@H](C(N)=O)NC(=O)[C@H](CCC)NC(=O)[C@H]([C@@H](C)CC)NC(=O)[C@@H]2C[C@@H](O)CN2C(=O)[C@@H]2CCCN2C(=O)[C@H](Cc2ccccc2)NC(=O)[C@H](Cc2ccc(O)cc2)NC(=O)CNC(=O)[C@H](CCCNC(=N)N)NC1=O [UPAR-409] (Pentanoyl-CRGYFP[Hyp]I[Nva]C-NH2; disulfide 1-10)", "Kd": "< 1.58 nM"}

###

Target: human uPAR (uPAR-Fc) (Homo sapiens, UniProt Q03405)
Construct: comprising amino acids Leu23-Arg303 according to UniProt entry Q03405.1; purchased R&D Systems 10378-UK-100
Sequence (Q03405 23-303): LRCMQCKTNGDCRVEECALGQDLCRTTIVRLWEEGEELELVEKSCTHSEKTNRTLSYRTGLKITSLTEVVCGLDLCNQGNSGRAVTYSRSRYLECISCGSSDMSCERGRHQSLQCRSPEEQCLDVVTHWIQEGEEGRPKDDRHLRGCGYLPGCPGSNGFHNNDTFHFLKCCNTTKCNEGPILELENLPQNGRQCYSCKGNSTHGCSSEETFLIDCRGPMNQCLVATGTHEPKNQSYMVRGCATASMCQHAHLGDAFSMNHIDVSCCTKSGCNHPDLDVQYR
Experiment: Surface plasmon resonance (SPR) assay, single cycle kinetics
Type: binding
Conditions: pKD category for uPAR SPR activity assay; uPAR-Fc on Protein A-Chip, 25°C; read-out: pKD CAT (converted)
Procedure: Surface plasmon resonance (SPR) is an optical technique used to measure molecular interactions in real time. SPR occur when plane-polarized light hits a metal film under total internal reflection conditions. […] In an SPR experiment, one molecule (i.e. uPAR) is immobilized on a sensor chip and binding to a second molecule (i.e. test compounds) is measured under flow. […] This response is measured in resonance units (RU). […]
Where a SMILES comes first, the peptide text is derived from it. Bridges are numbered along the chain shown (N, C = ends). [ ]: non-standard residue; d: D form. The star is where a group is joined. DOTA = O=C(O)CN1CCN(CC(=O)O)CCN(CC(=O)*)CCN(CC(=O)O)CC1; Pro(trans-4-F) = O=C(O)[C@@H]1C[C@@H](F)CN1; Pro(4R-NH2) = N[C@H]1CN[C@H](C(=O)O)C1; Bta = N[C@@H](Cc1csc2ccccc12)C(=O)O; Hyp = O=C(O)[C@@H]1C[C@@H](O)CN1; Pentanoyl(4-Me) = CC(C)CCC(=O)*; Cit = NC(=O)NCCC[C@H](N)C(=O)O; NMeL = CN[C@@H](CC(C)C)C(=O)O; Butoxycarbonyl = CCCCOC(=O)*; Ac6c = NC1(C(=O)O)CCCCC1; Nle = CCCC[C@H](N)C(=O)O; Nva = CCC[C@H](N)C(=O)O; Hexanoyl = CCCCCC(=O)*; Pentanoyl = CCCCC(=O)*; X2 = CCCOC(=O)*
quantity.kind: Kd

{"compound": "CCCOC(=O)N[C@H]1CSSC[C@@H](C(N)=O)NC(=O)[C@H](CCC)NC(=O)[C@H]([C@@H](C)CC)NC(=O)[C@@H]2C[C@@H](O)CN2C(=O)[C@@H]2CCCN2C(=O)[C@H](Cc2ccccc2)NC(=O)[C@H](Cc2ccc(O)cc2)NC(=O)[C@H](CCCCNC(=O)CN2CCN(CC(=O)O)CCN(CC(=O)O)CCN(CC(=O)O)CC2)NC(=O)[C@H](CCCNC(N)=O)NC1=O [UPAR-267] (X2-C[Cit]K(DOTA)YFP[Hyp]I[Nva]C-NH2; disulfide 1-10)", "value.observed": "10 to 100 nM"}
{"compound": "CCCC[C@@H]1NC(=O)[C@H](CCCNC(=N)N)NC(=O)[C@@H](NC(=O)[C@H](CC(C)C)NC(=O)[C@@H](CC(=O)O)NC(C)=O)CSSC[C@@H](C(N)=O)NC(=O)[C@H](CC(C)C)NC(=O)[C@H]([C@@H](C)CC)NC(=O)[C@H](C)NC(=O)[C@@H]2CCCN2C(=O)[C@H](Cc2ccccc2)NC(=O)[C@H](Cc2ccc(O)cc2)NC1=O [UPAR-133] (Ac-[dD]LCR[Nle]YFPAILC-NH2; disulfide 3-12)", "value.observed": "< 1.58 nM"}
{"compound": "CC[C@H](C)[C@@H]1NC(=O)[C@@H]2C[C@@H](N)CN2C(=O)[C@@H]2CCCN2C(=O)[C@H](Cc2ccccc2)NC(=O)[C@H](Cc2ccc(O)cc2)NC(=O)[C@H](CCC(N)=O)NC(=O)[C@H](CCCNC(N)=O)NC(=O)[C@@H](NC(=O)CCC(C)C)CSSC[C@@H](C(N)=O)NC(=O)[C@H](CC(C)C)NC1=O [UPAR-295] ({Pentanoyl(4-Me)}-C[Cit]QYFP[Pro(4R-NH2)]ILC-NH2; disulfide 1-10)", "value.observed": "< 1.58 nM"}
{"compound": "CCCCCC(=O)N[C@@H](CC(=O)O)C(=O)N[C@@H](CC(C)C)C(=O)N[C@H]1CSSC[C@@H](C(N)=O)NC(=O)[C@H](CC(C)C)NC(=O)[C@H]([C@@H](C)CC)NC(=O)[C@H](C)NC(=O)[C@@H]2CCCN2C(=O)[C@H](Cc2ccccc2)NC(=O)[C@H](Cc2ccc(O)cc2)NC(=O)[C@H](CCSC)NC(=O)[C@H](CCCCNC(=O)CN2CCN(CC(=O)O)CCN(CC(=O)O)CCN(CC(=O)O)CC2)NC1=O [UPAR-235] (Hexanoyl-DLCK(DOTA)MYFPAILC-NH2; disulfide 3-12)", "value.observed": "< 1.58 nM"}
{"compound": "CCCCOC(=O)N[C@H]1CSSC[C@@H](C(N)=O)NC(=O)[C@H](CCC)NC(=O)[C@H]([C@@H](C)CC)NC(=O)[C@@H]2C[C@@H](F)CN2C(=O)[C@@H]2CCCN2C(=O)[C@H](Cc2ccccc2)NC(=O)[C@H](Cc2ccc(O)cc2)NC(=O)[C@H](CCCCNC(=O)CN2CCN(CC(=O)O)CCN(CC(=O)O)CCN(CC(=O)O)CC2)NC(=O)[C@H]([C@@H](C)O)NC1=O [UPAR-289] (Butoxycarbonyl-CTK(DOTA)YFP[Pro(trans-4-F)]I[Nva]C-NH2; disulfide 1-10)", "value.observed": "< 1.58 nM"}
{"compound": "CCCCC(=O)N[C@H]1CSSC[C@@H](C(N)=O)NC(=O)[C@H](CCC)NC(=O)[C@H]([C@@H](C)CC)NC(=O)[C@@H](CO)NC(=O)[C@@H]2CCCN2C(=O)[C@H](Cc2ccccc2)NC(=O)[C@H](Cc2ccc(O)cc2)NC(=O)[C@H](CCC(N)=O)NC(=O)[C@H](CCCNC(=N)N)NC1=O [UPAR-329] (Pentanoyl-CRQYFP[dS]I[Nva]C-NH2; disulfide 1-10)", "value.observed": "< 1.58 nM"}
{"compound": "CCCCC(=O)N[C@H]1CSSC[C@@H](C(N)=O)NC(=O)[C@H](CCC)NC(=O)[C@H]([C@@H](C)CC)NC(=O)[C@@H]2C[C@@H](O)CN2C(=O)[C@H](CC(C)C)N(C)C(=O)[C@H](Cc2ccccc2)NC(=O)[C@H](Cc2ccc(O)cc2)NC(=O)[C@H](CCC(N)=O)NC(=O)[C@H](CCCNC(=N)N)NC1=O [UPAR-302] (Pentanoyl-CRQYF[NMeL][Hyp]I[Nva]C-NH2; disulfide 1-10)", "value.observed": "1.58 to 10 nM"}
{"compound": "CCCCC(=O)N[C@H]1CSSC[C@@H](C(N)=O)NC(=O)[C@H](CCC)NC(=O)[C@H]([C@@H](C)CC)NC(=O)[C@@H]2C[C@@H](O)CN2C(=O)[C@@H]2CCCN2C(=O)[C@H](Cc2csc3ccccc23)NC(=O)[C@H](Cc2ccc(O)cc2)NC(=O)[C@H](CCC(N)=O)NC(=O)[C@H](CCCNC(=N)N)NC1=O [UPAR-273] (Pentanoyl-CRQY[Bta]P[Hyp]I[Nva]C-NH2; disulfide 1-10)", "value.observed": "< 1.58 nM"}
{"compound": "CCCCC(=O)N[C@H]1CSSC[C@@H](C(N)=O)NC(=O)[C@H](CCC)NC(=O)C2(CCCCC2)NC(=O)[C@@H]2C[C@@H](O)CN2C(=O)[C@@H]2CCCN2C(=O)[C@H](Cc2ccccc2)NC(=O)[C@H](Cc2ccc(O)cc2)NC(=O)[C@H](CCC(N)=O)NC(=O)[C@H](CCCNC(=N)N)NC1=O [UPAR-264] (Pentanoyl-CRQYFP[Hyp][Ac6c][Nva]C-NH2; disulfide 1-10)", "value.observed": "< 1.58 nM"}
{"compound": "CC[C@H](C)[C@@H]1NC(=O)[C@H](C)NC(=O)[C@@H]2CCCN2C(=O)[C@H](Cc2ccccc2)NC(=O)[C@H](Cc2ccc(O)cc2)NC(=O)[C@H](CCSC)NC(=O)[C@H](CCCNC(=N)N)NC(=O)[C@@H](NC(=O)[C@H](CC(C)C)NC(=O)[C@H](CC(=O)O)NC(C)=O)CSSC[C@@H](C(N)=O)NC(=O)[C@H](CC(C)C)NC1=O [UPAR-341] (Ac-DLCRMYFPAILC-NH2; disulfide 3-12)", "value.observed": "< 1.58 nM"}

Where do the numbers come from? From patent EP4610269A1.
